target_or_test_system: T1, human GIP receptor (human, UniProt P48546 22-466)
T1 sequence (looked up): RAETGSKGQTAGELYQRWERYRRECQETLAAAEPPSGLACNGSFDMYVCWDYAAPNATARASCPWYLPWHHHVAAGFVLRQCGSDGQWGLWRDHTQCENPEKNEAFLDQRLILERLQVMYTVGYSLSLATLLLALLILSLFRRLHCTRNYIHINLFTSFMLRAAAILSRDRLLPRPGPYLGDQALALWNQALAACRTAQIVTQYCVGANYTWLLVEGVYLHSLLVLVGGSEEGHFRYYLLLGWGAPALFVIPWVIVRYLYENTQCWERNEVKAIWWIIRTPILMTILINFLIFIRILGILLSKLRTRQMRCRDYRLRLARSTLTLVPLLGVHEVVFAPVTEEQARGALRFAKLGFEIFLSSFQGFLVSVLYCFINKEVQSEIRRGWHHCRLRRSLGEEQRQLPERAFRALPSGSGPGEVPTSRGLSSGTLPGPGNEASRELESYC
procedure_summary: cell-based or functional assay
Field: EC50, cAMP. Provide a value for each of the binders that follow.

For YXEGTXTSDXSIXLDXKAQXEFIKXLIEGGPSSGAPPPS (Aib2, αMeF(2F)6, 4Pal10, αMeL13, Orn16, Aib20, αMeY25, K17 and K24: K(AEEA2-(γ-Glu)-(10-(4-carboxyphenoxy)decanoyl)), C-terminal NH2) [Example 128] the binder record lists EC50, cAMP as 0.0232 nM

For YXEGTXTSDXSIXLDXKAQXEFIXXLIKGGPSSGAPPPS (Aib2, αMeF(2F)6, 4Pal10, αMeL13, Orn16, Aib20, D-Glu24, αMeY25, K17 and K28: K(AEEA2-(γ-Glu)-CO-(CH2)10-CH3), C-terminal NH2) [Example 139] the binder record lists EC50, cAMP as 0.0108 nM

For YXEGTXTSDXSIXLDXIAQXEFIXXLIKGGKSSGAPPPS (Aib2, αMeF(2F)6, 4Pal10, αMeL13, Orn16, Aib20, D-Glu24, αMeY25, K28 and K31: K(AEEA2-(γ-Glu)-CO-(CH2)12-CO2H), C-terminal NH2) [Example 20] the binder record lists EC50, cAMP as 0.00985 nM
